Catalogue of EC50 readings, one per entry.
target: T1, His-tagged human TSLP antigen (huTSLP-his) (human); experiment: ELISA, coated huTSLP-his;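 further: binding of antibodies to plate-bound TSLP read as absorbance at 450 nm after TMB colour development, EC50 derived from binding curves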
T1 construct: Secreted from HEK293E and purified on nickel; whole entry named; also called Human TSLP-his

Below, each entry is followed by its recorded EC50 result.
hu3-03 (antibody, human IgG1, kappa, V domains shown, IgG1-YTE, kappa) VH: EVQLVQSGAEVKKPGASVKVSCKASGYTFTDDYMNWVRQAPGQRLEWMGIISPYNGGTSYNQKFKGRVTITRDTSASTAYMELSSLRSEDTAVYYCAREDYDYDGYAMDHWGQGTTVTVSS VL: EIVLTQSPATLSLSPGERATLSCRASSSVSYMHWYQQKPGQAPRPWIYATSNLASGVPARFSGSGSGTSYTLTISRLEPEDFAVYYCQQWSSNRTFGGGTKVEIKR    0.554 nM
hu179-27 (antibody, human IgG1, kappa, V domains shown, IgG1-YTE, kappa) VH: EVQLVQSGAEVKKPGSSVKVSCKASGYTFSNYLIEWVRQAPGQGLEWIGVIDPGNGDTNYNENFKGRATLTADKSTSTAYIELSSLRSEDTAVYYCAREDNTGTAFDYWGQGTTVTVSS VL: DIVMTQSPDSLAVSLGERATINCKASQSVSSDVTWYQQKPGQSPKLLIYYVENHYTGVPDRFSGSGSGTDFTLTISSLQAEDVAVYYCQQHHRFPLTFGQGTKLEIKR    0.18 nM

Note: attention shifts to another entry.
Recorded EC50 for hu119-16 (antibody, human IgG1, kappa, V domains shown, IgG1-YTE, kappa) VH: EVQLVQSGAEVKKPGSSVKVSCKASGGTFSTYNMHWVRQAPGQGLEWIGAIYPGNGETSYNQKFKDRATLTVDKSTRTAYMELSSLRSEDTAVYYCAREDDYGEGYFDVWGQGTTVTVSS VL: EIVLTQSPATLSLSPGERATLSCRASESVDNSGLSFMHWYQQKPGQAPRLLIYRASNLGSGIPARFSGSGSGTDFTLTISSLEPEDFAVYYCQQINTDPLTFGQGTKLEIKR , please?
0.366 nM
